The measured values listed here are drawn from patent US12024506B2.

target: GST-human KRas166 (G12V) GPPNHP (Homo sapiens, UniProt P01116, G12V); construct: made in house; host or cells: E. coli C41(DE3); assay: KRas small-molecule screening by SPR (Biacore T200); assay type: binding; conditions: compound 100 uM, 5% DMSO buffer; immobilised GST-KRas166 (G12V) GPPNHP

{"Molecule": "COc1cc(NC(=O)N2CCN(C)CC2)cc(-c2cccc3c2OCCO3)n1 [Example 23]", "SPR Response Units": "58 Response Units"}
{"Molecule": "COc1nc(-c2cccc3c2OCCO3)ccc1Nc1ccc(CNC[C@H]2COCCN2)cc1 [Example 129]", "SPR Response Units": "92 Response Units"}
{"Molecule": "COc1nc(-c2cccc3c2OCCO3)ccc1Nc1ccc(CNC[C@@H]2COCCN2)cc1 [Example 128]", "SPR Response Units": "99 Response Units"}
{"Molecule": "COc1nc(-c2cccc3c2OC(CNC(=O)C2CCOCC2)CO3)ccc1Nc1ccc(C(=O)N(C)C)cc1 (centres unmarked) [Example 94]", "SPR Response Units": "111 Response Units"}
{"Molecule": "CN1CCN(Cc2ccc(C(=O)NCC3COc4cccc(-c5cc(OCc6ccccc6)ccn5)c4O3)o2)CC1 (centres unmarked) [Example 106]", "SPR Response Units": "114 Response Units"}
{"Molecule": "COc1nc(-c2cccc3c2OCCO3)ccc1Nc1ccc(CNCc2cc[nH]c(=O)c2)cc1 [Example 170]", "SPR Response Units": "284 Response Units"}
{"Molecule": "COc1nc(-c2cccc3c2OCCO3)ccc1Nc1ccc(CNCC2CCNC(=O)C2)cc1 (centres unmarked) [Example 201]", "SPR Response Units": "209 Response Units"}
{"Molecule": "COc1cccc(-c2cccc3c2O[C@@H](CNC(=O)c2ccc(CN4CCN(C)CC4)o2)CO3)n1 [Example 44]", "SPR Response Units": "42 Response Units"}
{"Molecule": "COc1cccc(-c2cccc3c2OC(CNC(=O)c2coc(CN4CCOCC4)c2)CO3)n1 (centres unmarked) [Example 46]", "SPR Response Units": "148 Response Units"}
{"Molecule": "COc1nc(-c2cccc3c2OCCO3)ccc1Nc1ccc(CNCC2CCNCC2)cc1 [Example 178]", "SPR Response Units": "150 Response Units"}
{"Molecule": "COc1nc(-c2cccc3c2OC(CNC(=O)C2CCOCC2)CO3)ccc1Nc1ccc(CNCc2ccncc2)cc1 (centres unmarked) [Example 119]", "SPR Response Units": "349 Response Units"}
{"Molecule": "NCc1ccc(C(=O)N2CCN(c3cccc4c3OCCO4)CC2)cc1 [Example 184]", "SPR Response Units": "10 Response Units"}
{"Molecule": "COc1cccc(-c2cccc3c2OC(CN2C(=O)CN(C4CCNCC4)C2=O)CO3)n1 (centres unmarked) [Example 37]", "SPR Response Units": "31 Response Units"}
{"Molecule": "COc1nc(-c2cccc3c2OCCO3)ccc1Nc1cccc(CN2CCNCC2)c1 [Example 207]", "SPR Response Units": "1189 Response Units"}
{"Molecule": "COc1cccc(-c2cccc3c2OC(CNCC2CCN(C)CC2)CO3)n1 (centres unmarked) [Example 27]", "SPR Response Units": "58 Response Units"}
{"Molecule": "COc1cc(NC(=O)N[C@@H]2CC[C@H](N)C2)cc(-c2cccc3c2OC(CNC(=O)C2CCOCC2)CO3)n1 (some centres unmarked) [Example 135]", "SPR Response Units": "57 Response Units"}
{"Molecule": "COc1nc(-c2cccc3c2OCCO3)ccc1Nc1ccc(CNCC2CCC(=O)NC2)cc1 (centres unmarked) [Example 172]", "SPR Response Units": "174 Response Units"}
